biological target: T1, KRAS G13D (G13D-RT6) peptide on HLA-DQA1*05:01 / HLA-DQB1*03:01 (human); test: NFAT-luciferase; Jurkat-NFAT-Luc with the TCR and Lovo-DPA0301:DPB0501 cells loaded with G13D-RT6; against wild-type B8.2.4 TCR; full-length, on cells
T1 peptide: YKLVVVGAGDVGKSAL
assay-metric: TCR Mut RLU/WT RLU (ratio)
Supply the numeric figure in ratio, leaving out any unit text.

Here's what some known entries look like.
| binder | measured |
| --- | --- |
| B8.2.4 TCR mutant α97R-Q (TCR, V domains shown) Valpha: AQKITQTQPGMFVQEKEAVTLDCTYDTSDPSYGLFWYKQPSSGEMIFLIYQGSYDQQNATEGRYSLNFQKARKSANLVISASQLGDSAMYFCAMREQTGTASKLTFGTGTRLQVTL Vbeta: DVKVTQSSRYLVKRTGEKVFLECVQDMDHENMFWYRQDPGLGLRLIYFSYDVKMKEKGDIPEGYSVSREKKERFSLILESASTNQTSMYLCASSQTVPPQHFGDGTRLSIL | 0.16 |
| B8.2.4 TCR mutant α97R-S (TCR, V domains shown) Valpha: AQKITQTQPGMFVQEKEAVTLDCTYDTSDPSYGLFWYKQPSSGEMIFLIYQGSYDQQNATEGRYSLNFQKARKSANLVISASQLGDSAMYFCAMRESTGTASKLTFGTGTRLQVTL Vbeta: DVKVTQSSRYLVKRTGEKVFLECVQDMDHENMFWYRQDPGLGLRLIYFSYDVKMKEKGDIPEGYSVSREKKERFSLILESASTNQTSMYLCASSQTVPPQHFGDGTRLSIL | 0.22 |
| B8.2.4 TCR mutant α97R-W (TCR, V domains shown) Valpha: AQKITQTQPGMFVQEKEAVTLDCTYDTSDPSYGLFWYKQPSSGEMIFLIYQGSYDQQNATEGRYSLNFQKARKSANLVISASQLGDSAMYFCAMREWTGTASKLTFGTGTRLQVTL Vbeta: DVKVTQSSRYLVKRTGEKVFLECVQDMDHENMFWYRQDPGLGLRLIYFSYDVKMKEKGDIPEGYSVSREKKERFSLILESASTNQTSMYLCASSQTVPPQHFGDGTRLSIL | 0.18 |

Below: the item to evaluate.
Input: Data request, read-out TCR Mut RLU/WT RLU, for B8.2.4 TCR mutant α97R-V (TCR, V domains shown) Valpha: AQKITQTQPGMFVQEKEAVTLDCTYDTSDPSYGLFWYKQPSSGEMIFLIYQGSYDQQNATEGRYSLNFQKARKSANLVISASQLGDSAMYFCAMREVTGTASKLTFGTGTRLQVTL Vbeta: DVKVTQSSRYLVKRTGEKVFLECVQDMDHENMFWYRQDPGLGLRLIYFSYDVKMKEKGDIPEGYSVSREKKERFSLILESASTNQTSMYLCASSQTVPPQHFGDGTRLSIL
Output: 0.16
